tested on: RPMI-8226; test: NCI tumour cell line growth inhibition, 48 h
The source made the active and inactive calls. No stated cut-off is given here; in the data, active = GI50 up to about 1.1 µM and inactive = higher.
Outcomes: t (active), f (inactive)

>  <COMPOUND>
c1ccc(-c2nc(-c3ccccc3)c(-c3ccccc3)[nH]2)cc1

>  <ASSIGNED_LABEL>
f

$$$$
>  <COMPOUND>
CC(C)C1NC(=O)[C@H](C)OC(=O)[C@@H](C(C)C)NC(=O)[C@@H](C)OC(=O)C(C(C)C)NC(=O)[C@H](C)OC1=O (stereo partly drawn)

>  <ASSIGNED_LABEL>
f

$$$$
>  <COMPOUND>
Oc1ccc(C(c2ccc(O)cc2)c2ccc(O)cc2)cc1

>  <ASSIGNED_LABEL>
f

$$$$
>  <COMPOUND>
O=C(COc1ccc(OCC(=O)N2C(=O)CN(c3ccccc3)C2=S)cc1)N1C(=O)CN(c2ccccc2)C1=S

>  <ASSIGNED_LABEL>
f

$$$$
>  <COMPOUND>
COc1cc(-c2cc(=O)c3cc(C)c(C)c(C(=O)O)c3o2)cc(OC)c1OC

>  <ASSIGNED_LABEL>
f

$$$$
>  <COMPOUND>
O=C(/C=C/c1ccc(O)c(O)c1)OCCCc1ccccc1

>  <ASSIGNED_LABEL>
f

$$$$
>  <COMPOUND>
O=C(O)C(Sc1ccc(Cl)cc1)Sc1ccc(Cl)cc1

>  <ASSIGNED_LABEL>
f

$$$$
>  <COMPOUND>
N#Cc1nc(Nc2cccc3ccccc23)sc1N

>  <ASSIGNED_LABEL>
f

$$$$
>  <COMPOUND>
OB(O)c1ccccc1C#Cc1ccccc1B(O)O

>  <ASSIGNED_LABEL>
f

$$$$
>  <COMPOUND>
CCC(C)C(NC(=O)c1c2ccccc2nc2ccccc12)C(=O)O (stereo not drawn)

>  <ASSIGNED_LABEL>
f

$$$$
>  <COMPOUND>
CC1(C)[C@H]2CC[C@]1(C)[C@H](OC(=O)NNC(=O)O[C@@H]1C[C@@H]3CC[C@@]1(C)C3(C)C)C2

>  <ASSIGNED_LABEL>
f

$$$$
>  <COMPOUND>
Cc1nc2sc(CCl)nn2c(=O)c1Cl

>  <ASSIGNED_LABEL>
f

$$$$
>  <COMPOUND>
COC(=O)/C=C\C(C#N)(C#N)/N=C/c1ccccc1

>  <ASSIGNED_LABEL>
t

$$$$
>  <COMPOUND>
CNC(=O)CN(CC(N)=O)C(=O)NC

>  <ASSIGNED_LABEL>
f

$$$$
>  <COMPOUND>
O=C1c2ccccc2CC12Cc1ccc3c(c1C2=O)CCCC3 (stereo not drawn)

>  <ASSIGNED_LABEL>
f

$$$$
>  <COMPOUND>
COC(=O)c1csnn1

>  <ASSIGNED_LABEL>
f

$$$$
>  <COMPOUND>
CC1=NC(C(C)C)C(=O)O1 (stereo not drawn)

>  <ASSIGNED_LABEL>
f

$$$$
>  <COMPOUND>
CC(=O)NNc1nc(C)c(C(=O)/C=C/c2ccc(NC(C)=O)cc2)s1

>  <ASSIGNED_LABEL>
f

$$$$
>  <COMPOUND>
O=C1OI(C#Cc2ccccc2)c2ccccc21

>  <ASSIGNED_LABEL>
f

$$$$
>  <COMPOUND>
COc1cc([C@@H]2c3cc4c(cc3[C@@H](NCc3ccccc3F)C3COC(=O)[C@@H]32)OCO4)cc(OC)c1O (stereo partly drawn)

>  <ASSIGNED_LABEL>
f

$$$$
>  <COMPOUND>
Cc1cc2c(c(C#N)c1C)NC(=O)CCC2=O

>  <ASSIGNED_LABEL>
f

$$$$
>  <COMPOUND>
C=C1C(C(=O)O)C1C(=O)O (stereo not drawn)

>  <ASSIGNED_LABEL>
f

$$$$
>  <COMPOUND>
O=C1C2C3C=CC(C2C(=O)N1COP(=O)(O)O)C1C2C(=O)N(COP(=O)(O)O)C(=O)C2C31 (stereo not drawn)

>  <ASSIGNED_LABEL>
f

$$$$

====

test system: ACHN; assay: NCI tumour cell line growth inhibition, 48 h
Activity calls are given as the source filed them. Cut-off read from the data, not from the text of the source: active = GI50 up to about 1.1 µM and inactive = higher.
Outcomes: yes (1) (active), no (0) (inactive)

>  <MOLECULE>
Cc1ccc(/C=C2\N=C(N3CCCCC3)NC2=O)cc1

>  <ASSIGNED_LABEL>
no (0)

$$$$
>  <MOLECULE>
CC(C)(C)[Si](C)(C)OC1/C(=C/C#N)C(n2ccc(=O)[nH]c2=O)OC1CO (stereo not drawn)

>  <ASSIGNED_LABEL>
no (0)

$$$$
>  <MOLECULE>
Cc1cn(C2CC(N=[N+]=[N-])C(CO[Si](C)(C)C(C)(C)C)O2)c(=O)[nH]c1=O (stereo not drawn)

>  <ASSIGNED_LABEL>
no (0)

$$$$
>  <MOLECULE>
Cc1ccc([S+]([O-])C[C@](NC(=O)OCc2ccccc2)(Sc2ccccc2)C(F)F)cc1 (stereo partly drawn)

>  <ASSIGNED_LABEL>
no (0)

$$$$
>  <MOLECULE>
CC1=NC(C(C)C)C(=O)O1 (stereo not drawn)

>  <ASSIGNED_LABEL>
no (0)

$$$$
>  <MOLECULE>
O=C(/C=C/c1cccc(Oc2ccccc2)c1)NCc1ccc(C(=O)NCc2ccccc2)cc1

>  <ASSIGNED_LABEL>
no (0)

$$$$
>  <MOLECULE>
Cc1cc(O)c2c(c1O)C(=O)c1cccc(O)c1C2=O [ISLANDICIN]

>  <ASSIGNED_LABEL>
no (0)

$$$$
>  <MOLECULE>
S=C(NCc1ccccc1)c1nc[nH]c1C(=S)NCc1ccccc1

>  <ASSIGNED_LABEL>
no (0)

$$$$
>  <MOLECULE>
OC1NC2Nc3ccccc3NC2NC1O (stereo not drawn)

>  <ASSIGNED_LABEL>
no (0)

$$$$
>  <MOLECULE>
C/C=C1\CN2CCC34c5ccccc5N(C)C35OCC4(C(=O)OC)C1CC25 (stereo not drawn)

>  <ASSIGNED_LABEL>
no (0)

$$$$
>  <MOLECULE>
CC(=O)Nc1ccc(C(=O)NN2C(=O)C(Cl)C2/C=C/c2ccccc2)cc1 (stereo not drawn)

>  <ASSIGNED_LABEL>
no (0)

$$$$
>  <MOLECULE>
Cc1n[n+](Cc2ccccc2)c2sc(N)nn12

>  <ASSIGNED_LABEL>
no (0)

$$$$
>  <MOLECULE>
O=S(=O)(/C=C/C=C/S(=O)(=O)c1ccccc1)c1ccccc1

>  <ASSIGNED_LABEL>
yes (1)

$$$$
>  <MOLECULE>
CCOc1cc(NC(C)=O)ccc1C(=O)N/N=C/c1ccco1

>  <ASSIGNED_LABEL>
no (0)

$$$$
>  <MOLECULE>
COc1cc2c(cc1OC)C(=O)/C(=C/c1ccccc1)C2

>  <ASSIGNED_LABEL>
no (0)

$$$$
>  <MOLECULE>
C(=C\c1cc(CCc2nc3ccccc3[nH]2)n[nH]1)/c1ccccc1

>  <ASSIGNED_LABEL>
no (0)

$$$$
>  <MOLECULE>
CCN(CC)c1c(C(C)(C)C)c(=O)n2ccsc2c1OC(C)=O

>  <ASSIGNED_LABEL>
no (0)

$$$$
>  <MOLECULE>
O=C(O)CCCc1ccc(N(CCCl)CCCl)cc1 [CHLORAMBUCIL]

>  <ASSIGNED_LABEL>
no (0)

$$$$
>  <MOLECULE>
Cn1ccnc1Oc1ccc(Cl)cc1

>  <ASSIGNED_LABEL>
no (0)

$$$$
>  <MOLECULE>
CN1C(=O)[C@](C)(Cc2ccc(F)cc2)N(C(=O)OC(C)(C)C)[C@@H]1C(C)(C)C

>  <ASSIGNED_LABEL>
no (0)

$$$$
>  <MOLECULE>
Cc1cccc(C)c1NC(=S)N/C=C(\C#N)C(N)=O

>  <ASSIGNED_LABEL>
no (0)

$$$$
>  <MOLECULE>
COC(C)C(O)(C(=O)OCC1=CCN2CCC(O)C12)C(C)(C)O (stereo not drawn)

>  <ASSIGNED_LABEL>
no (0)

$$$$
>  <MOLECULE>
CN(C)CCCNC(=O)c1cc(NC(=O)CCCn2c3ccccc3c3ccccc32)cn1C

>  <ASSIGNED_LABEL>
no (0)

$$$$

====

GI50 reference
system: M19-MEL; experiment: NCI tumour cell line growth inhibition, 48 h
The source made the active and inactive calls. Rule as the data show it: active = GI50 up to about 1.1 µM and inactive = higher.
ATTRIBUTE_MEASURED: GI50

>  <COMPOUND>
Cn1c(=O)c2ccc(-c3ccc(Br)cc3)nc2n(C)c1=O

>  <TEST_VALUE>
> 100 µM (inactive)

$$$$
>  <COMPOUND>
COc1ccc(-c2cc(O)c3cc(OC)ccc3n2)cc1

>  <TEST_VALUE>
> 100 µM (inactive)

$$$$
>  <COMPOUND>
Sc1nnc(-c2ccccc2)n1/N=C\c1ccc(-c2ccc(Cl)cc2)o1

>  <TEST_VALUE>
> 100 µM (inactive)

$$$$
>  <COMPOUND>
COC(=O)C12C3C4C5(C(=O)OC)C(C1C35C(=O)N(C(C)C)C(C)C)C42C(=O)N(C(C)C)C(C)C (stereo not given)

>  <TEST_VALUE>
> 47.8 µM (inactive)

$$$$
>  <COMPOUND>
O=S(=O)(SCc1ccccc1)C(c1ccccc1)c1ccccc1

>  <TEST_VALUE>
32.4 µM (inactive)

$$$$

Value source: ChEMBL document CHEMBL1201862
